tested on: CEM cells HIV-1 protection, formazan growth assay; assay: NCI AIDS Antiviral Assay; details: measured here: growth of uninfected CEM cells
Where a SMILES comes first, the peptide text is derived from it.
readout: IC50

>>> observed("CC(N)C(=O)NCC(=O)NC(CO)C(=O)NC(CCC(N)=O)C(=O)NC(CCC(=O)O)C(=O)N1CCCC1C(=O)NC(CCCCN)C(=O)NC(CCC(=O)O)C(=O)NC(CCC(N)=O)C(=O)NC(CO)C(=O)NC(CO)C(=O)NC(Cc1ccc(O)cc1)C(=O)NC(CO)C(=O)NC(Cc1cnc[nH]1)C(=O)NC(CO)C(=O)O (stereo not drawn) (H-AGSQEPKEQSSYSHS-OH; configuration not given here)")
"> 100 µM"
>>> observed("CCOC(=O)/C(N=O)=C(/O)CC(C)C")
"> 200 µM"
>>> observed("Cn1c(=O)c2c(-c3ccccc3)onc2n(C)c1=O")
"11 µM"
>>> observed("COC1=NC(NC2OCC(O)C(O)C2O)=C(NC(C)=O)CN1C (stereo not drawn)")
"> 200 µM"
>>> observed("COC1(C)CP(=O)(OC(C)C)CC(C)=C1Cl (stereo not drawn)")
"7.59 µM"
>>> observed("CN(C)C(=O)Nc1cc2c3c(c1)CCCN3CCC2")
"174 µM"
>>> observed("C/C=C/C=C\\C=C/C(O)C(C)C(CCC(C)C1OC(=O)C=CC1C)OP(=O)(O)O (stereo not drawn)")
"0.129 µM"
>>> observed("NC(=Nc1ccc(S(=O)(=O)Nc2cnc3ccccc3n2)cc1)/N=C(/N)Nc1ccc(Br)cc1")
"> 87.1 µM"

====

As shown below, each of these compounds has a reported pIC50 value.
tested on: CEM cells HIV-1 protection, formazan growth assay; experiment: NCI AIDS Antiviral Assay; details: measured here: growth of uninfected CEM cells
pIC50: −log10 of the molar value.
readout: pIC50

>>> observed("COC(=O)C(C)Sc1nc2cc(Cl)ccc2s1 (stereo unspecified)")
3.76
>>> observed("c1ccc2c(c1)SCCCS2")
"< 4.40"
>>> observed("N#CC1=C2SCCN2C(=O)C(C#N)C12CCCCC2 (stereo unspecified)")
"< 3.70"
>>> observed("COc1c(Cl)cc(C(=O)c2cc(Cl)c(OC)c(C(=O)O)c2)cc1C(=O)O")
"< 3.04"
>>> observed("O=P(O)(O)c1ccc2c(c1)OCCOCCOCCOCCO2")
"< 3.70"
>>> observed("Cc1cc2c(cc1Cl)SC(NNC(=O)c1ccco1)=NS2(=O)=O")
"< 3.70"
>>> observed("Cc1cc2ccccc2n1CC(=O)NCC(C)C")
"< 3.70"
>>> observed("Cc1cc(S(=O)(=O)NC(=NCC(=O)NN)NN)c(S)cc1Cl")
4.46
>>> observed("O=C(O)c1ccc(-n2[se]c3ccccc3c2=O)cc1")
4.69
>>> observed("O=S(=O)(c1ccccc1)N1CC2(CN(S(=O)(=O)c3ccccc3)c3ccccc31)CN(S(=O)(=O)c1ccccc1)c1ccccc1N(S(=O)(=O)c1ccccc1)C2")
"< 3.70"
>>> observed("COc1cc([N+](=O)[O-])ccc1C(=O)Nc1c2ccccc2nc2ccccc12")
6.32

====

test system: CEM cells HIV-1 protection, formazan growth assay; assay: NCI AIDS Antiviral Assay;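 active = compounds giving half or more protection of infected cells from virus-caused growth loss, again on retest; inactive = the rest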
Possible outcomes: active, inactive

>>> discrete_label("CC(C)CCn1c(=O)c2c(=O)[nH][nH]c2c2ccccc21")
"inactive"
>>> discrete_label("COc1cccc(OC)c1NC1=NCCO1")
"inactive"
>>> discrete_label("N#Cc1c(O)c(C=O)c(=O)n2c1[nH]c1ccccc12")
"inactive"
>>> discrete_label("O=[N+]([O-])c1ccc(-c2ccc(C3=Nn4c(nnc4-c4ccc(Cl)cc4)SC3)o2)cc1")
"inactive"
>>> discrete_label("O=C(O)c1ccc2c3c(n[se]c13)-c1ccccc1C2=O")
"inactive"
>>> discrete_label("Cc1ccc(N=Nc2c(C)nn(C(=O)CC(=O)Nc3ccccc3)c2C)cc1C")
"inactive"
>>> discrete_label("CS(=O)(=O)OCC1CCCCCCCCCCC12SCCCS2 (stereo not given)")
"inactive"
>>> discrete_label("COc1cc(-c2ccc(N=Nc3ccc4c(S(=O)(=O)O)cc(S(=O)(=O)O)c(N)c4c3O)c(OC)c2)ccc1N=Nc1ccc2c(S(=O)(=O)O)cc(S(=O)(=O)O)c(N)c2c1O")
"active"
>>> discrete_label("CC(C)CC(NC(=O)C(CCI)Cc1ccccc1)C(=O)Nc1ccccc1 (stereo not given)")
"inactive"
>>> discrete_label("Cn1nc2ccc([N+](=O)[O-])c(Cn3nnc4ccccc43)c2n1")
"inactive"

====

system: CEM cells HIV-1 protection, formazan growth assay; experiment: NCI AIDS Antiviral Assay
pEC50: −log10 of the molar value.
As shown below, each of these compounds has a reported pEC50 value.
readout: pEC50

>>> observed("O=C(c1ccco1)[N+]1=Cc2[nH]c3ccccc3c2CC1")
"< 3.77"
>>> observed("CC1OC(=O)C2=C1C(=O)CC(C)(C)O2 (stereo unspecified)")
"< 3.74"
>>> observed("Nc1ccc(S(=O)(=O)Nc2cnc3c(Cl)cccc3n2)cc1")
"< 3.27"
>>> observed("CC(NC(=O)C1CCCN1C(=O)OC(C)(C)C)C(=O)OCc1ccccc1 (stereo unspecified)")
"< 4.02"
>>> observed("CC(=O)OCC1OC(n2c(C)cc(-c3ccco3)c(C#N)c2=S)C(OC(C)=O)C(OC(C)=O)C1OC(C)=O (stereo unspecified)")
3.90
>>> observed("CCOC(=O)/C(=C\\c1c[nH]c2ccccc12)P(=O)(OCC)OCC")
"< 3.70"
>>> observed("[Ni+2].[O-]/C(=N\\N=C/c1ccccc1F)c1ccncc1.[O-]/C(=N\\N=C\\c1ccccc1F)c1ccncc1")
"< 4.00"
>>> observed("CCCCCCCCCCCCCCCCP(=O)([O-])OCC[N+](C)(C)C")
"< 3.70"
>>> observed("Cc1nc2ccc(Cl)cc2c(Cl)c1CCCl")
"< 3.70"
>>> observed("CCN(CC)CCC1CCCCN1CC(=O)N1c2ccccc2NC(=O)c2ccccc21 (stereo unspecified)")
"< 3.70"
>>> observed("Cc1cc2ccccc2n1CC(=O)NCC(C)C")
"< 3.70"

====

test system: CEM cells HIV-1 protection, formazan growth assay; assay: NCI AIDS Antiviral Assay;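 active = compounds giving half or more protection of infected cells from virus-caused growth loss, again on retest; inactive = the rest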
Outcomes: true (1) (active), false (0) (inactive)

>>> discrete_label("CC(=O)N1c2ccccc2Sc2cc(C(O)(C(F)(F)F)C(F)(F)F)ccc21")
"false (0)"
>>> discrete_label("COc1cc(/C=N/NC2=NCCCN2)ccc1O")
"false (0)"
>>> discrete_label("CC1(C)C=CC(C)(C)c2c(NS(=O)(=O)c3ccccc3)ccc(NS(=O)(=O)c3ccccc3)c21")
"false (0)"
>>> discrete_label("Cc1c(O)cc2c(c1O)C(=O)CC(c1ccc(O)cc1)O2 (stereo not drawn)")
"false (0)"
>>> discrete_label("Cc1cc2c(cc1Cl)SC(NNC(=O)c1ccco1)=NS2(=O)=O")
"false (0)"
>>> discrete_label("Oc1cccc2ccc(Br)nc12")
"false (0)"
>>> discrete_label("CCCCSc1nc2c(=O)[nH][nH]c(=O)c2n1Cc1ccccc1")
"false (0)"
>>> discrete_label("Cc1cc2c(cc1Cl)SC(C(=O)c1cccc([N+](=O)[O-])c1)=NS2(=O)=O")
"true (1)"
>>> discrete_label("O=C1CCCCc2scc(C(=O)O)c2N1")
"false (0)"
>>> discrete_label("NC(=O)/N=N/C(N)=O")
"true (1)"
>>> discrete_label("c1ccc(N2CCN(CCCN3CCc4c([nH]c5ccccc45)C3c3cccnc3)CC2)cc1 (stereo not drawn)")
"false (0)"
>>> discrete_label("C=C(C)P(=O)(OC(C)CCl)OC(C)CCl (stereo not drawn)")
"false (0)"
>>> discrete_label("O=S(=O)(SCCO)c1ccccc1")
"false (0)"
>>> discrete_label("CCOC(=O)NC(Nc1ccc(F)cc1F)(C(F)(F)F)C(F)(F)F")
"false (0)"
>>> discrete_label("COc1ccc(/C=C/C(=O)c2nc3ccccc3n2C)cc1")
"false (0)"
>>> discrete_label("Cn1c(-c2ccccc2)cc(-c2ccc3c(c2)OCO3)c1-c1ccsc1")
"false (0)"
>>> discrete_label("CC(=O)O[C@H]1CC[C@@]2(C)[C@H](CC[C@@H]3[C@@H]2CC[C@]2(C)[C@@H]4[C@H](C[C@@H]32)O[C@]2(CC[C@@H](C)CO2)[C@H]4C)C1")
"false (0)"
>>> discrete_label("O=C1c2c(ccc3c2CCC3)CC12Cc1cc3c(cc1C2)CCC3")
"false (0)"
>>> discrete_label("O=C(O)c1cccc(S(=O)(=O)NN2C(=O)CSC2c2c(O)ccc3ccccc23)c1 (stereo not drawn)")
"false (0)"
>>> discrete_label("CC(C)(Cc1ccccc1)N1C(=O)N1C(C)(C)Cc1ccccc1")
"false (0)"
>>> discrete_label("Nc1nc(Cl)c(/C=N\\O)c(NCC2(CO)CCC2)n1")
"false (0)"
>>> discrete_label("C/C(CC(=O)Nc1cccc([N+](=O)[O-])c1)=N/NC(N)=S")
"false (0)"
>>> discrete_label("Cn1c(=O)c(CC(C(=O)O)C(=O)O)nc2ccccc21")
"false (0)"
